QUANTITY NAME: melting point

Data request: May I ask what melting point has been recorded for O=C(NO)c1cnc(N2CCC(CNS(=O)(=O)c3ccc(C(=O)Nc4ccc(Cl)c(-c5ccccn5)c4)c(Cl)c3)CC2)nc1 ?
Data returned: 172 to 173 °C

Data request: May I ask what melting point has been recorded for COc1cc(CNc2ncc(C(=O)NO)cn2)cc(C(=O)Nc2ccc(Cl)c(-c3nc4cc(N(C)C)ccc4[nH]3)c2)c1 ?
Data returned: 158 to 159 °C

Data request: May I ask what melting point has been recorded for O=C(NO)c1ccc(OCCNS(=O)(=O)c2ccc(C(=O)Nc3ccc(Cl)c(-c4ccccn4)c3)c(Cl)c2)cc1 ?
Data returned: 138 to 139 °C

Data request: May I ask what melting point has been recorded for Cc1nc(NCC2CCN(c3ncc(C(=O)NO)cn3)CC2)ccc1C(=O)Nc1ccc(Cl)c(-c2nc3ccccc3[nH]2)c1 ?
Data returned: 194 to 196 °C

Data request: May I ask what melting point has been recorded for CS(=O)(=O)c1ccc(C(=O)Nc2ccc(Cl)c(-c3ccc(OCCCCCCC(=O)NO)cn3)c2)c(Cl)c1 ?
Data returned: 140 to 145 °C
